# Test system: breast cancer 4T1 cells
# run_description: Tumor weight and tumor inhibition in BALB/c mice bearing breast cancer 4T1 cells
# test_context: Table 10; avg tumor volume 336 mm^3; 150 μl/mouse every 3 days x3; 5th day after last dose
Field: Intratumoral injection Tumor inhibition rate. Provide a value for each of the molecules that follow.
Number only, in %; omit the unit.

Exercise: Look up breast cancer 4T1 cells data: Intratumoral injection Tumor inhibition rate of `NCC(=O)O` , then report it.
Solution: 18

Exercise: Look up breast cancer 4T1 cells data: Intratumoral injection Tumor inhibition rate of `CC(=O)O` , then report it.
Solution: 53

Exercise: Look up breast cancer 4T1 cells data: Intratumoral injection Tumor inhibition rate of `O=c1[nH]cc(F)c(=O)[nH]1` , then report it.
Solution: 51

Exercise: Look up breast cancer 4T1 cells data: Intratumoral injection Tumor inhibition rate of N=C(N)NCCC[C@H](N)C(=O)O [15% arginine, L-arginine] , then report it.
Solution: 28

Exercise: Look up breast cancer 4T1 cells data: Intratumoral injection Tumor inhibition rate of [Na+].[OH-] [1% NaOH, sodium hydroxide] , then report it.
Solution: 41

Exercise: Look up breast cancer 4T1 cells data: Intratumoral injection Tumor inhibition rate of N=C(N)NCCC[C@H](N)C(=O)O [20% arginine, L-arginine] , then report it.
Solution: 33

====

# Tested on: human liver cancer cells (HepG2)
# run_description: Tumor weight and tumor inhibition in nude mice bearing HepG2
# Assay type: in vivo
# test_context: Table 6; avg tumor volume 153 mm^3; ≤120 μl/mouse every 3 days x3; 5th day after last dose
# Protocol: One of the core characteristics of tumors is heterogeneity. […] The corresponding negative control was normal saline. They were injected intraperitoneally and intratumorally. The negative control group was given normal saline. […]
Field: Intratumoral injection Tumor inhibition rate. Provide a value for each of the compounds that follow.
Number only, in %; omit the unit.

Exercise: Look up human liver cancer cells (HepG2) data: Intratumoral injection Tumor inhibition rate of N[C@@H](CCC(=O)N[C@@H](CS)C(=O)NCC(=O)O)C(=O)O [10% glutathione, Reduced glutathione] , then report it.
Solution: 58

Exercise: Look up human liver cancer cells (HepG2) data: Intratumoral injection Tumor inhibition rate of O=c1[nH]cc(F)c(=O)[nH]1 [1% 5-fluorouracil, 5-fluorouracil] , then report it.
Solution: 66

Exercise: Look up human liver cancer cells (HepG2) data: Intratumoral injection Tumor inhibition rate of CC/C=C\C/C=C\C/C=C\C/C=C\C/C=C\C/C=C\CCC(=O)O [5% DHA, Docosahexaenoic acid (DHA)] , then report it.
Solution: 27

Exercise: Look up human liver cancer cells (HepG2) data: Intratumoral injection Tumor inhibition rate of CC(=O)O [3.5% acetic acid, acetic acid] , then report it.
Solution: 64

Exercise: Look up human liver cancer cells (HepG2) data: Intratumoral injection Tumor inhibition rate of CN(C)c1ccc2nc3ccc(=[N+](C)C)cc-3sc2c1 [0.7% methylene blue, Methylene blue] , then report it.
Solution: 13

====

# Tested on: human head and neck cancer cells (Fμda)
# run_description: Tumor inhibition in nude mice bearing human head and neck cancer cells (Fμda)
# Type: in vivo
# test_context: Example 2; intratumoral 100 μl/mouse every 3 days x3; next day; avg tumor volume 109 mm^3
Peptide text beside a SMILES is read from it.
Field: Tumor inhibition rate. Provide a value for each of the compounds that follow.
Quick note: number first, unit second.

Exercise: Answer with the recorded Tumor inhibition rate for the compound listed here: C[C@H](N)C(=O)N[C@@H](CCC(N)=O)C(=O)O [10% ALA-GLN, Alanyl-glutamine dipeptide] (H-Ala-Gln-OH)
Solution: 51%

Exercise: Answer with the recorded Tumor inhibition rate for the compound listed here: Cl.N[C@@H](CCC(=O)O)C(=O)O [3% glutamic hydrochloride, L-glutamic hydrochloride]
Solution: 58%

Exercise: Answer with the recorded Tumor inhibition rate for the compound listed here: `N=C(N)NCCC[C@H](N)C(=O)O`
Solution: 56%

Exercise: Answer with the recorded Tumor inhibition rate for the compound listed here: `N[C@@H](CCC(=O)N[C@@H](CS)C(=O)NCC(=O)O)C(=O)O`
Solution: 53%

====

# Tested on: human liver cancer cells (HepG2)
# run_description: Tumor weight and tumor inhibition in nude mice bearing HepG2
# Format: in vivo
# test_context: Table 11; avg tumor volume 164 mm^3; intratumoral every 3 days x3, ≤150 μl; fifth day after last dose
Marks after values point to notes of the source that are not given here.
value_kind: Tumor inhibition rate

Take a look at these entries with their results.
>>> assay_result("N=C(N)NCCC[C@H](N)C(=O)O [10% arginine, L-arginine]")
"(43%)"
>>> assay_result("N=C(N)NCCC[C@H](N)C(=O)O [20% arginine, L-arginine]")
"(60%)"
>>> assay_result("Cl [0.25% hydrochloric acid, hydrochloric acid]")
"(31%)"
>>> assay_result("O=C1OC2(c3cc(I)c(O)c(I)c3Oc3c2cc(I)c(O)c3I)c2c(Cl)c(Cl)c(Cl)c(Cl)c21 [5% Bengal Red, Bengal Red]")
"(46%)"
>>> assay_result("CN(C)c1ccc2nc3ccc(=[N+](C)C)cc-3sc2c1 [0.35% methylene blue, Methylene blue]")
"(18%)"

Now look at this entry.
Exercise: Answer with the recorded Tumor inhibition rate for the compound listed here: O=C1OC2(c3cc(I)c(O)c(I)c3Oc3c2cc(I)c(O)c3I)c2c(Cl)c(Cl)c(Cl)c(Cl)c21 [10% Bengal Red, Bengal Red]
Solution: (63%)

====

# Test system: pancreatic cancer cells PANC-1
# run_description: Tumor inhibition in nude mice bearing pancreatic cancer cells PANC-1
# Assay type: in vivo
# test_context: Table 4; avg tumor volume 136 mm^3; intratumoral every 3 days x3, ≤150 μl; next day; hydrochloride
Field: Tumor inhibition rate. Provide a value for each of the compounds that follow.
Quick note: number first, unit second.

Exercise: Answer with the recorded Tumor inhibition rate for the compound listed here: Cl.N[C@@H](CCC(=O)O)C(=O)O [0.25% glutamic hydrochloride, L-glutamic hydrochloride]
Solution: 13%

Exercise: Answer with the recorded Tumor inhibition rate for the compound listed here: Cl.N[C@@H](CCC(=O)O)C(=O)O [2% glutamic hydrochloride, L-glutamic hydrochloride]
Solution: 49%

Exercise: Answer with the recorded Tumor inhibition rate for the compound listed here: Cl.N[C@@H](CCC(=O)O)C(=O)O [5% glutamic hydrochloride, L-glutamic hydrochloride]
Solution: 76%

Exercise: Answer with the recorded Tumor inhibition rate for the compound listed here: Cl.N[C@@H](CCC(=O)O)C(=O)O [0.15% glutamic hydrochloride, L-glutamic hydrochloride]
Solution: 16%

Exercise: Answer with the recorded Tumor inhibition rate for the compound listed here: Cl.N[C@@H](CCC(=O)O)C(=O)O [0.5% glutamic hydrochloride, L-glutamic hydrochloride]
Solution: 11%

Exercise: Answer with the recorded Tumor inhibition rate for the compound listed here: Cl.N[C@@H](CCC(=O)O)C(=O)O [1% glutamic hydrochloride, L-glutamic hydrochloride]
Solution: 18%

Exercise: Answer with the recorded Tumor inhibition rate for the compound listed here: Cl.N[C@@H](CCC(=O)O)C(=O)O [3% glutamic hydrochloride, L-glutamic hydrochloride]
Solution: 69%

====

# System: breast cancer 4T1 cells
# run_description: Tumor weight and tumor inhibition in BALB/c mice bearing breast cancer 4T1 cells;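 also: subcutaneous grafts in the right axilla, tumors excised and weighed after euthanasia, inhibition rate derived from group mean tumor weight versus the negative control group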
# test_context: Table 10; avg tumor volume 336 mm^3; 150 μl/mouse every 3 days x3; 5th day after last dose
Field: Intratumoral injection Tumor weight. Provide a value for each of the molecules that follow.
Number only, in g; omit the unit.

Exercise: Answer with the recorded Intratumoral injection Tumor weight for the molecule listed here: N=C(N)NCCC[C@H](N)C(=O)O [15% arginine, L-arginine]
Solution: 0.92

Exercise: Answer with the recorded Intratumoral injection Tumor weight for the molecule listed here: N=C(N)NCCC[C@H](N)C(=O)O [20% arginine, L-arginine]
Solution: 0.86

Exercise: Answer with the recorded Intratumoral injection Tumor weight for the molecule listed here: O=c1[nH]cc(F)c(=O)[nH]1 [1% 5-fluorouracil, 5-fluorouracil]
Solution: 0.63

Exercise: Answer with the recorded Intratumoral injection Tumor weight for the molecule listed here: CC(=O)O [10% acetic acid, acetic acid]
Solution: 0.60

Exercise: Answer with the recorded Intratumoral injection Tumor weight for the molecule listed here: NCC(=O)O [20% glycine, Glycine]
Solution: 1.05

Exercise: Answer with the recorded Intratumoral injection Tumor weight for the molecule listed here: [Na+].[OH-] [1% NaOH, sodium hydroxide]
Solution: 0.76

====

# run_description: pH of the drug composition
# Assay type: physicochemical
# test_context: Table 13; aqueous solution
Field: Drug pH. Provide a value for each of the compounds that follow.
Number only, please.

Exercise: Answer with the recorded Drug pH for the compound listed here: O=C([O-])[O-].[Na+].[Na+] [7% sodium carbonate, sodium carbonate]
Solution: 10.8

Exercise: Answer with the recorded Drug pH for the compound listed here: O=C([O-])[O-].[Na+].[Na+] [2.8% sodium carbonate, sodium carbonate]
Solution: 10.9

Exercise: Answer with the recorded Drug pH for the compound listed here: O=C([O-])O.[Na+] [2% sodium bicarbonate, sodium bicarbonate]
Solution: 6.9

Exercise: Answer with the recorded Drug pH for the compound listed here: `N=C(N)NCCC[C@H](N)C(=O)O`
Solution: 11.0

Exercise: Answer with the recorded Drug pH for the compound listed here: O=C([O-])O.[Na+] [10% sodium bicarbonate, sodium bicarbonate]
Solution: 6.8

Exercise: Answer with the recorded Drug pH for the compound listed here: O=C([O-])[O-].[Na+].[Na+] [14% sodium carbonate, sodium carbonate]
Solution: 10.8

Exercise: Answer with the recorded Drug pH for the compound listed here: O=C([O-])O.[Na+] [5% sodium bicarbonate, sodium bicarbonate]
Solution: 6.9
